- Test system: MS2 coat protein
- assay_notes: apparent KD of MS2 coat protein, switch ON state; designed switch direction (-1 OFF switch, 1 ON switch): -1; higher = weaker reporter binding
- reported_conditions: FMN input: 0 or 200 uM; Eterna round: R93 (includes R88 designs)
What apparent KD of MS2 coat protein was measured for each of the following?
Answer with the number, then the unit.

Query: For AGCUAGUCAGGAUAUACGAACAUGUCAGAAGACGUAAGGGAACAUGAGGAUCACCCAUGUAGAAGGGACUAGCA [Diamond 48] , what is its reported apparent KD of MS2 coat protein?
Reply: 0.0331 µM

Query: For AAAAAGGCAGGAUAUACGAGUCAAAGAAAAGACAAAAGGAAACAUGAGGAUCACCCAUGUAGAAGGGCCAAAAA [Fiskers exclusion D2 62% 6] , what is its reported apparent KD of MS2 coat protein?
Reply: 0.0282 µM

Query: For GGCUAGUCAGGAUAUACGAACAUGUCAAAAGACGUGAAGGGACAUGAGGAUCACCCAUGUAGAAGGGACUAGCA [salish99-ex2-12] , what is its reported apparent KD of MS2 coat protein?
Reply: 0.0315 µM

Query: For GCUUGUCUAGGAUAUACAUGAGGAUCACCCAUGUGAGAGAAAAAAGUGAGAAAGAAAAGUAGAAGGAGGUGAGG [salish99-ex3-81] , what is its reported apparent KD of MS2 coat protein?
Reply: 0.0284 µM

Query: For AAGAACCAAGGAUAUACAAAAUAAAAGAAAAGAAAGAAAGAACAUGAGGAUCACCCAUGUAGAAGGUGGAAGAA [Khaankhre Sobekhotep] , what is its reported apparent KD of MS2 coat protein?
Reply: 0.0477 µM

Query: For AGUCAGAGAGGAUAUACAUAGGAAAAAAAAGUAAGAUCCCUACAUGAGGAUCACCCAUGUAGAAGGCUCUGACA [Ex2 Design 140: Sub-opt 4] , what is its reported apparent KD of MS2 coat protein?
Reply: 0.141 µM

Query: For AGCUCGGUAGGAUAUACAAAAUGAUUGCGAAAGCAAUCAACACAUGAGGAUCACCCAUGUAGAAGGACCGAGCA [Mat - Exclusion 2 - JL-Eli mod - D42] , what is its reported apparent KD of MS2 coat protein?
Reply: 0.0152 µM

Query: For GAAGAACAUGAGGAUCACCCAUGUCAGGAUAUGAGCAAGGGAAUAAUAACUUGCGGAAUCAGAAGGGACAAGAA [Ex 1 May 51] , what is its reported apparent KD of MS2 coat protein?
Reply: 0.0317 µM

Query: For GAAAAACAUGAGGAUCACCCAUGUAAGGAUAUGCUGAAAAACACGGAAAAAACGUGCAGCAGAAGGUACAAAAA [Mat - Exclusion 1 - Eli mod - D92] , what is its reported apparent KD of MS2 coat protein?
Reply: 0.0158 µM

Query: For GACACCGGAGGAUAUACAAGUCCUUACUGUCUAAAACCAUGACAUGAGGAUCACCCAUGUAGAAGGCCGAAAAG [Atbela] , what is its reported apparent KD of MS2 coat protein?
Reply: 0.0633 µM

Query: For AACAGACAUGAGGAUCACCCAUGUGAGGAUAUCCAAAACGAUAAAACAAGAAUGACAGGGAGAAGGCACAGCAA [JR_Exc001_Sub008] , what is its reported apparent KD of MS2 coat protein?
Reply: 0.0652 µM

Query: For CACGGGUUAGGAUAUGCAUGGUGAAAAGACGCGAUCCUUAGACAUGAGGAUCACCCAUGUAGAAGGAACGCGAU [Reonisar] , what is its reported apparent KD of MS2 coat protein?
Reply: 0.0172 µM

Query: For UAAAACUUAGGAUAUACAUGAGGAUCACCCAUGUCAAGACAAGGAAGGUCCUAAGCCGGUAGAAGGAAGAAAAU [Bexeora] , what is its reported apparent KD of MS2 coat protein?
Reply: 0.0296 µM

Query: For GAAAAGUGAGGAUAUUCGGAUAGGAAAACGAAAACCUAUCCGAAGAAGGCACAUGAGGAUCACCCAUGUGGAAA [Mat - Exaclusion 4 - Eli mod - D45] , what is its reported apparent KD of MS2 coat protein?
Reply: 0.0301 µM

Query: For GGUUGGCGAGGAUAUACAUGAGGAUCACCCAUGUGAGAAAAAAAAGUGAGAAAGAAAAGUAGAAGGCGCUGACG [salish99-ex3-49] , what is its reported apparent KD of MS2 coat protein?
Reply: 0.0401 µM

Query: For AUAAACAGAGGAUAUACACAAAAUAAAGAAAAUAAAGAAACACAUGAGGAUCACCCAUGUAGAAGGCUGGAAAA , what is its reported apparent KD of MS2 coat protein?
Reply: 0.0233 µM

Query: For AAAUUAGGAGGAUAUACAUGAGGAUCACCCAUGUGACGAUGUUACUGCAUGAAGCCAAGUAGAAGGUCUAAGAA [Lacelaatdi] , what is its reported apparent KD of MS2 coat protein?
Reply: 0.0247 µM

Query: For CUCUUGUGAGGAUAUGAAAGAAAAGAAAAGAAAGAAAAGAAUCAGAAGGCACAUGAGGAUCACCCAUGUAAGAA [EteRNA is fun!] , what is its reported apparent KD of MS2 coat protein?
Reply: 0.037 µM

Query: For UAAAGACAUGAGGAUCACCCAUGUGAGGAUAUUGGUGACUAUAAAAAAAAAUAGUCACCGAGAAGGCAUAGGAA [JR_Exc001_Sub302] , what is its reported apparent KD of MS2 coat protein?
Reply: 0.031 µM

Query: For AGUUGGCGAGGAUAUACAUGAGGAUCACCCAUGUGAGAGAAAUAAGUGAGAAAGAAAAGUAGAAGGCGCUCACA [JL Lego Mod 17] , what is its reported apparent KD of MS2 coat protein?
Reply: 0.068 µM

Query: For AAAAAACAUGAGGAUCACCCAUGUGAGGAUAUGCAAAACCCAUAUAAAAAGGGAAAAAGUAGAAGGCACAAAAA [wbt round 1 mod 10] , what is its reported apparent KD of MS2 coat protein?
Reply: 0.0241 µM

Query: For UAAAGACAUGAGGAUCACCCAUGUGAGGAUAUCGGAGAUAACAGAACAUCAAGUUCAGCGAGAAGGCACAGGAA [JR_Exc001_Sub403] , what is its reported apparent KD of MS2 coat protein?
Reply: 0.047 µM

Query: For GAAAAGGUAGGAUAUACGAAAAAAAAGGGUAGAAAAAAAACACAUGAGGAUCACCCAUGUAGAAGGACCAAAAG [Mat - Exclusion 2 - Tesla mod - D30] , what is its reported apparent KD of MS2 coat protein?
Reply: 0.0266 µM

Query: For ACCAAUGGAGGAUAUACAUGAGGAUCACCCAUGUAUAACCUACAUAGGUGAAAAAAAUGUAGAAGGCCAUUGGA [EX3 233: Super Stable 33] , what is its reported apparent KD of MS2 coat protein?
Reply: 0.0312 µM

Query: For AAAAAGCGAGGAUAUACAUGAGGAUCACCCAUGUCAAACGGUAAGACCGCAGGAAACAGUAGAAGGCGCAAAAA [Exclusion3-03] , what is its reported apparent KD of MS2 coat protein?
Reply: 0.0583 µM

Query: For AAAAAGUGAGGAUAUGCAGUGUCCUGUAGACGCGAGCACUUGUAGAAGGCACAUGAGGAUCACCCAUGUUUAAA [EX4 Malc#28] , what is its reported apparent KD of MS2 coat protein?
Reply: 0.024 µM

Provenance of the data: the supplement of paper PMC9170038
